Entries and their measured IC50 follow.
biological target: human IDO1 (Homo sapiens, UniProt P14902); assay: Assessment of human IDO-1 inhibitory activity in HEK cells (human IDO1/HEK293 cells, kynurenine read-out with Ehrlich reagent, absorbance 490 nm); format: cell-based; parameters: expressed in transfected cells; conditions: HEK Human IDO-1 cellular assay
Sequence (P14902 whole entry): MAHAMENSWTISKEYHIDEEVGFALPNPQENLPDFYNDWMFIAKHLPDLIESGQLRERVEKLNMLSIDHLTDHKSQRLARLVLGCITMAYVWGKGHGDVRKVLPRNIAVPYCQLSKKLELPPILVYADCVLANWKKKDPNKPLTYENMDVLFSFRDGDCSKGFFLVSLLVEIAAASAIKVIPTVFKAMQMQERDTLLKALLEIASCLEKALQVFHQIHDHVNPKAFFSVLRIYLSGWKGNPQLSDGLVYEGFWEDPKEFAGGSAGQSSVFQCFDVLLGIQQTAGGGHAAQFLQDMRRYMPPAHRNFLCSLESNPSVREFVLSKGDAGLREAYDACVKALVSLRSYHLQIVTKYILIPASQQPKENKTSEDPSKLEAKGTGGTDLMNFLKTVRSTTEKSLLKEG

compound="CC[C@H](CC(=O)O)c1ccc(N2CCOC[C@@H]2C(C)C)c(NC(=O)Nc2ccc(Cl)cc2F)c1 (single isomer, unassigned)" result="< 0.05 µM"
compound="CCC(CC(=O)O)c1ccc(N2CCC[C@H]2C(C)(C)O)c(NC(=O)Nc2ccc(OC)cc2)c1 (single isomer, unassigned)" result="> 0.05 µM"
compound="CCC(CC(=O)O)c1cc(F)c(N(CC(C)C)CC(C)C)c(NC(=O)c2ccc(Cl)cc2)c1 (single isomer, unassigned)" result="> 0.05 µM"
compound="Cc1ccc(NC(=O)Nc2cc(C(C)CC(=O)O)c(F)cc2N(CC(C)C)C2CCCCC2)cc1 (racemic) [Example 955]" result="< 0.005 µM"
compound="CC(CC(=O)O)c1ccc(N(CC(C)(C)O)C2CCOCC2)c(Nc2ccc(C#N)cc2)c1 (single isomer, unassigned) [Example 194]" result="< 0.05 µM"

Query :: Using the record for CC[C@H](CC(=O)O)c1ccc(N(CC(C)C)C2CCS(=O)(=O)CC2)c(NC(=O)Nc2ccc(OC)cc2F)c1 (single isomer, unassigned) , report its IC50.
Result :: > 0.05 µM

Query :: Using the record for CCOc1ncc(Nc2cc(C(CC)CC(=O)O)ccc2N(CC2CC2)C(C)C)cn1 (single isomer, unassigned) , report its IC50.
Result :: < 0.05 µM

Query :: Using the record for COCC(CC(=O)O)c1ccc(N(CC2CC2)C2CCOCC2)c(Nc2ccc(Cl)cc2)c1 (single isomer, unassigned) [Example 690] , report its IC50.
Result :: > 0.05 µM

Query :: Using the record for CCc1ccc(Nc2cc([C@@H](COC)CC(=O)O)ccc2N(CC)C2CCOCC2)cc1 (single isomer, unassigned) , report its IC50.
Result :: < 0.005 µM

---

Biological target: human IDO1 (Homo sapiens, UniProt P14902)
Test: Assessment of human IDO-1 inhibitory activity in Hela cells (Interferon-gamma stimulated HeLa cells, Ehrlich reagent, absorbance 490 nm)
Assay type: cell-based
Set-up: endogenous in cells; host or cells: HeLa cells stimulated with interferon-gamma
Conditions: Hela Human IDO-1 cellular assay
Procedure: Exemplary compounds were tested for inhibition of IDO activity. Assessment of Human IDO-1 Inhibitory Activity in Hela Cells HeLa cells were seeded at 20,000 cells per 30 μL per well with RPMI/phenol red free media containing 10% FBS in a 384-well tissue culture plate (black with clear bottoms). […] Compound treatment was stopped by adding 5 μl trichloroacetic acid to a final concentration of 3%. […] Absorbance at 490 nm was measured on Envision plate reader. […]
Entries and their measured IC50 follow.

Example results:
compound="CCN(c1ccc([C@H](COC(C)C)CC(=O)O)cc1Nc1ccc(C#N)cc1)C1CCOCC1 (single isomer, unassigned) [Example 329]" result="< 50 nM"
compound="CCOc1ncc(Nc2cc([C@H](CC)CC(=O)Nc3ncco3)ccc2N(CC)C2CCOCC2)cn1 [Example 1346]" result="< 50 nM"
compound="CCC(CC(=O)O)c1ccc(N2CCOC(C)(C)C2)c(NC(=O)Nc2ccc(Cl)cc2F)c1 (single isomer, unassigned) [Example 1322 E1]" result="> 50 nM"

Query :: Query IC50 on human IDO1 (Homo sapiens, UniProt P14902) for CCCN(c1ccc(C(CC)CC(=O)O)cc1NC(=O)Nc1ccc(C)cc1)C1CCS(=O)(=O)CC1 (single isomer, unassigned) [Example 14 Enantiomer 1]
Result :: > 50 nM

Query :: Query IC50 on human IDO1 (Homo sapiens, UniProt P14902) for CCN(c1ccc([C@H](COC)CC(=O)O)cc1NC(=O)Nc1ccc(Cl)cc1Cl)C1CCOCC1 (single isomer, unassigned) [Example 441]
Result :: > 50 nM

Query :: Query IC50 on human IDO1 (Homo sapiens, UniProt P14902) for CCN(c1ccc([C@@H](COC)CC(=O)O)cc1Nc1cccc(OC(F)(F)C(F)F)c1)C1CCOCC1 (single isomer, unassigned) [Example 360]
Result :: > 50 nM

Query :: Query IC50 on human IDO1 (Homo sapiens, UniProt P14902) for CCCN(c1ccc(C(C)(C)CC(=O)O)cc1Nc1ccc(C#N)cc1)C1CCOCC1 [Example 22]
Result :: < 5 nM

Query :: Query IC50 on human IDO1 (Homo sapiens, UniProt P14902) for CCOc1ncc(Nc2cc([C@H](CC)CC(N)=O)ccc2N(CC)C2CCOCC2)cn1 [Example 1332]
Result :: > 50 nM

Query :: Query IC50 on human IDO1 (Homo sapiens, UniProt P14902) for CCCN(c1ccc([C@H](CC)CC(=O)O)cc1NC(=O)Nc1ccc(C#N)cc1)C1CCOCC1 (single isomer, unassigned) [Example 556]
Result :: < 50 nM

Query :: Query IC50 on human IDO1 (Homo sapiens, UniProt P14902) for CCN(c1ccc([C@@H](COC)CC(=O)O)cc1Nc1ccc(C#N)c(OCC(F)F)c1)C1CCOCC1 (single isomer, unassigned) [Example 371]
Result :: < 50 nM

---

molecular target: human IDO1 (Homo sapiens); assay: Assessment of human IDO-1 inhibitory activity in HEK cells (human IDO1/HEK293 cells, kynurenine read-out with Ehrlich reagent, absorbance 490 nm); type: cell-based; set-up: expressed in transfected cells; settings: HEK Human IDO-1 cellular assay
Entries and their measured IC50 follow.

Example results:
compound="CCOc1ccc(NC(=O)Nc2cc(C(COC)CC(=O)O)ccc2N(CC(C)C)C2CCCCC2)cc1 (single isomer, unassigned) [Example 1231]" result="< 50 nM"
compound="CCOc1ncc(Nc2cc([C@@H](CC)CC(=O)O)ccc2N2CCOC[C@@H]2C(C)C)cn1 (single isomer, unassigned) [Example 79]" result="> 50 nM"
compound="CCC(CC(=O)O)c1cc(NC(=O)Nc2cnc(OC)nc2)c(N(CC(C)C)CC(C)C)cc1F (single isomer, unassigned) [Example 1141]" result="< 5 nM"
compound="CC[C@H](CC(=O)O)c1ccc(N(CC)C2CCOCC2)c(Nc2ccc(OC)nc2)c1 (single isomer, unassigned) [Example 518]" result="< 5 nM"
compound="CCOc1ccc(Nc2cc(C(CC)CC(=O)O)ccc2N2CCC[C@H]2C(C)(C)O)cc1 (single isomer, unassigned) [Example 833]" result="> 50 nM"
compound="COCC(CC(=O)O)c1ccc(N(CC2CC2)C2CCOCC2)c(Nc2ccc3nc(C)sc3c2)c1 (single isomer, unassigned) [Example 689]" result="> 50 nM"

Query :: Using the record for COCC(CC(=O)O)c1cc(F)c(N(CC(C)C)C2CCCCC2)c(NC(=O)Nc2ccc(OC)cc2F)c1 (stereo not shown) [Example 1159] , report its IC50.
Result :: < 5 nM

The measurements presented in this section are drawn from patent US9790169B2.
